- Protocol Notes: ATG_M_19_CIS: Attagene CIS-FACTORIAL HepG2 Assay for M19 Transcription Factor (Internal Marker) (AID 2282939)
- Condition Set: HepG2 Attagene CIS-FACTORIAL M19 internal marker reporter; actives raise or lower the signal
The source made the active and inactive calls. How the source made its calls: active means hit-call score of the fitted dose curve at least 0.9, where 1 is the maximum; inactive means score below 0.9.
Assay Metric: outcome

Look over these answered cases.
Molecular String	outcome
CCCCOC(=O)c1ccccc1	inactive
NCC(F)(F)C(F)(F)C(F)(F)C(F)(F)F	inactive
NC(=O)NN=Cc1ccc([N+](=O)[O-])o1	inactive
OC[C@H]1O[C@@H]2O[C@H]3[C@H](O)[C@@H](O)[C@@H](O[C@H]4[C@H](O)[C@@H](O)[C@@H](O[C@H]5[C@H](O)[C@@H](O)[C@@H](O[C@H]6[C@H](O)[C@@H](O)[C@@H](O[C@H]7[C@H](O)[C@@H](O)[C@@H](O[C@H]1[C@H](O)[C@H]2O)O[C@@H]7CO)O[C@@H]6CO)O[C@@H]5CO)O[C@@H]4CO)O[C@@H]3CO	inactive

Can you give me outcome for all of these, one by one?
1. CC(C)c1nnc2ccc(-c3ocnc3-c3cc(F)ccc3F)cn12
2. CCCCCCCC/C=C\CCCCCCCC(=O)OC[C@@H](O)[C@H]1OC[C@H](O)[C@H]1O
3. FC(F)=C(F)C(F)(F)C(F)(F)C(F)(F)C(F)(F)C(F)(F)C(F)(F)F
4. O=c1[nH]cnc2c1ncn2[C@H]1CC[C@@H](CO)O1
5. CCCCCOC(C)=O

RESULT:
1. inactive
2. inactive
3. inactive
4. inactive
5. inactive

* * *

- Read-out: CYP2C8 (gene 1558)
- Protocol Notes: LTEA_HepaRG_CYP2C8: Life Technologies and Expression Analysis (LTEA) Assay for CYP2C8 using HepaRG (AID 2283483)
- Condition Set: mRNA level, 48 h; actives raise or lower the signal
The source made the active and inactive calls. How the source made its calls: active means hit-call score of the fitted dose curve at least 0.9, where 1 is the maximum; inactive means score below 0.9.
Assay Metric: AC50

Look over these answered cases.
Molecular String	Assay Metric	Experimental Value
CCCCN1C(=O)[C@@H]([C@H](O)C2CCCCC2)NC(=O)C12CCN(Cc1ccc(Oc3ccc(C(=O)O)cc3)cc1)CC2	AC50	3.24 µM (active)
C=CCc1cc(S(=O)(=O)c2ccc(O)c(CC=C)c2)ccc1O	AC50	97.2 µM (active)
CCCCCCCCCCCCCCO	AC50	inactive
Nc1ccn([C@@H]2O[C@H](CO)[C@@H](O)[C@@H]2O)c(=O)n1	AC50	inactive
O=S(=O)(O)c1ccc(N=Nc2c(O)ccc3cc(S(=O)(=O)O)ccc23)cc1	AC50	inactive

The compound listed as `NNC(=O)c1ccncc1` shows AC50 equal to inactive

* * *

- Protocol Notes: Tanguay_ZF_120hpf_TR_legacy: (Legacy) Oregon State University Tanguay Lab 120 Hour Post-fertilization zebrafish Assay for Touch Response (AID 2283667)
Results filed as inconclusive are left out. Active and inactive are the calls of the source. How the source made its calls: active means hit-call score of the fitted dose curve at least 0.9, where 1 is the maximum; inconclusive means response in the unintended direction; inactive means score below 0.9.
Outcome field: choose from active, inactive

Molecular String	Label Value
CCc1cccc(CC)c1N	inactive
CCCCN1C(=O)[C@@H]([C@H](O)C2CCCCC2)NC(=O)C12CCN(Cc1ccc(Oc3ccc(C(=O)O)cc3)cc1)CC2	inactive
CCN(CC)C(=S)SSC(=S)N(CC)CC	active
c1ccc(C(O[C@@H]2CCCN(CCc3ccc4c(c3)OCO4)C2)c2ccccc2)cc1	active
O=c1[nH]cnc2c1ncn2[C@H]1CC[C@@H](CO)O1	inactive
CCCCCCCCCC	inactive
NC(N)=O	inactive
Cc1nc(-c2ccccn2)ncc1C(=O)Nn1cc(C)c2cc(F)ccc21	inactive
O=S(=O)(O)c1ccc(N=Nc2c(O)ccc3cc(S(=O)(=O)O)ccc23)cc1	inactive
C[C@@H](Oc1ccc(CNC(=O)c2cccnc2Oc2ccc3c(c2)OCO3)c(F)c1)C(=O)O	inactive

QUERY: Name the outcome recorded for `CC[C@H](C)C(=O)O[C@H]1C[C@H](O)C=C2C=C[C@H](C)[C@H](CC[C@@H](O)C[C@@H](O)CC(=O)O)[C@H]21` in the assay.
RESULT: inactive

* * *

- Target: PGR (gene 5241) (UniProt P06401)
- Sequence (P06401 whole entry, looked up): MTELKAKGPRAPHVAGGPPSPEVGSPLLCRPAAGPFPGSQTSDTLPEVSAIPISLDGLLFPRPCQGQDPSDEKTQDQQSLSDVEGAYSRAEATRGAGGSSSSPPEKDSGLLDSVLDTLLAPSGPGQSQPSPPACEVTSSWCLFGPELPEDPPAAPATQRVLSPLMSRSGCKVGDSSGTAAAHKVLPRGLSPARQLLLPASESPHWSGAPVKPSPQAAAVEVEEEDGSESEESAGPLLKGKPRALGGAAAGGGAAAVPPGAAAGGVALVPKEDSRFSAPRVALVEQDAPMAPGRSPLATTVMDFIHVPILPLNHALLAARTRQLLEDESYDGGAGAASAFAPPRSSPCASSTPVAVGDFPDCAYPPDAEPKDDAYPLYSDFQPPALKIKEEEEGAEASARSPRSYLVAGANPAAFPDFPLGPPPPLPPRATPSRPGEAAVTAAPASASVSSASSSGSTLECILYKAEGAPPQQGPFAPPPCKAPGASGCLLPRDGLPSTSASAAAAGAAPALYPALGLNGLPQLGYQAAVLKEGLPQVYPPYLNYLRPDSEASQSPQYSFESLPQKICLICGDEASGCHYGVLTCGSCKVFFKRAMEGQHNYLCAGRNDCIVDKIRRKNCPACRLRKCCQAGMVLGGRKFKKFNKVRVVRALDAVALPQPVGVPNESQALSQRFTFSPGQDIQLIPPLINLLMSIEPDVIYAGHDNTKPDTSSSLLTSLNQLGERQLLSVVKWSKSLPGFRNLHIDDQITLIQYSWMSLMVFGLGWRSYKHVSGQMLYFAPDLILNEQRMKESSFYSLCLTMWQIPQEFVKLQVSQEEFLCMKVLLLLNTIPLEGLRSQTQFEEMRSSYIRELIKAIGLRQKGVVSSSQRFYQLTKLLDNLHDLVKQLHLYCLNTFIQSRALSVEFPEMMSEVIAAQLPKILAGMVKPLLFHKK
- Protocol Notes: NVS_NR_hPR: NovaScreen (NVS) Nuclear Receptor Binding Assay for human Progestron Receptor (PR) (AID 2283360);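 further: active means loss of bound radioligand signal versus DMSO baseline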
Records with an inconclusive call do not appear. Active and inactive are the calls of the source. Rule for the calls: active = hit-call score of the fitted dose curve at least 0.9, where 1 is the maximum; inconclusive = response in the unintended direction; inactive = score below 0.9.
Outcome field: choose from active, inactive

These solved cases illustrate the format of a correct answer.
Molecular String	Target	Label Value
Cc1nccn1-c1ccc(Sc2cccc(C3(C(N)=O)CCOCC3)c2)cc1	PGR (gene 5241) (UniProt P06401)	active
CCCOc1ccc(S(=O)(=O)N2CCN(CC)CC2)cc1-c1nc2c(CC)n(Cc3ccccn3)nc2c(=O)[nH]1	PGR (gene 5241) (UniProt P06401)	inactive

Next item in the queue.
QUERY: Name the outcome recorded for `CCc1ccc(O)c(C(C)(C)C)c1` in the assay.
RESULT: inactive

* * *

- Protocol Notes: TAMU_PeakParms_SingleDonor1434_QT: Texas A&M University (TAMU) 1.5-hr Human Induced Pluripotent Stem Cell (iPSC)-derived Cardiomyocytes Calcium (Ca+2) Flux Assay for Cardiotoxicity: QT (decay-rise ratio) (AID 2284235)
Inconclusive results are not listed. The source made the active and inactive calls. Rule for the calls: active = hit-call score of the fitted dose curve at least 0.9, where 1 is the maximum; inconclusive = response in the unintended direction; inactive = score below 0.9.

Molecular String	outcome
CC(C)C(=O)Nc1ccc([N+](=O)[O-])c(C(F)(F)F)c1	inactive
COc1cc2c(c(OC)c1OC)-c1ccc(OC)c(=O)cc1[C@@H](NC(C)=O)CC2	inactive
c1ccc2c(c1)-c1cccc3c1c-2cc1ccccc13	inactive
CCCC(CCC)C(=O)O	inactive

* * *

- Protocol Notes: APR_HepG2_MitoticArrest_72hr: Apredica 72-hour HepG2 Assay for Mitotic Arrest (AID 2282918)
- Condition Set: high-content imaging, actives raise or lower the signal
Calls of active or inactive are those of the source. How the source made its calls: active means hit-call score of the fitted dose curve at least 0.9, where 1 is the maximum; inactive means score below 0.9.
Outcome field: choose from y = active, n = inactive

These solved cases illustrate the format of a correct answer.
Molecular String	Label Value
COc1cc(C(C)C)c2c(c1)S(=O)(=O)N(COc1cc(=O)n3cccc(OCCN4CCCCC4)c3n1)C2=O	n
OCCNCCO	n
CC(C)c1nnc2ccc(-c3ocnc3-c3cc(F)ccc3F)cn12	n
Nc1ccn([C@@H]2O[C@H](CO)[C@@H](O)[C@@H]2O)c(=O)n1	y
C=CCc1cc(S(=O)(=O)c2ccc(O)c(CC=C)c2)ccc1O	y
OC(CCl)CCl	n

Next item in the queue.
QUERY: Name the outcome recorded for `O=C(O)c1cccc(C[C@@H]2COc3ccc(OCc4nc5cc(F)ccc5s4)cc3[C@@H]2O)c1` in the assay.
RESULT: y

* * *

- Protocol Notes: BSK_SAg_Proliferation: Cell Proliferation Assessment in the BioMAP Diversity Plus: SAg Assay (AID 2283095);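 further: relative cell number as total protein by SRB absorbance in sub-confluent culture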
- Condition Set: primary human HUVEC with PBMC
The source made the active and inactive calls. The calls were made as follows: active = hit-call score of the fitted dose curve at least 0.9, where 1 is the maximum; inactive = score below 0.9.
Outcome field: choose from Yes for active, No for inactive

Molecular String	Label Value
C=CCc1cc(S(=O)(=O)c2ccc(O)c(CC=C)c2)ccc1O	Yes

Next item in the queue.
QUERY: Name the outcome recorded for `OC(CCl)CCl` in the assay.
RESULT: No

* * *

- Read-out: CYP3A5 (gene 1577)
- Protocol Notes: LTEA_HepaRG_CYP3A5: Life Technologies and Expression Analysis (LTEA) Assay for CYP3A5 using HepaRG (AID 2283493)
- Condition Set: mRNA level, 48 h; actives raise or lower the signal
Active and inactive are the calls of the source. How the source made its calls: active means hit-call score of the fitted dose curve at least 0.9, where 1 is the maximum; inactive means score below 0.9.
Outcome field: choose from active, inactive

These solved cases illustrate the format of a correct answer.
Molecular String	Label Value
NC(=O)N1c2ccccc2C=Cc2ccccc21	inactive
C=CCc1cc(S(=O)(=O)c2ccc(O)c(CC=C)c2)ccc1O	active
CCCCCOC(C)=O	inactive
CCCCCCCCCC	inactive
CCCOc1ccc(S(=O)(=O)N2CCN(CC)CC2)cc1-c1nc2c(CC)n(Cc3ccccn3)nc2c(=O)[nH]1	inactive
c1ccc2cc3ccccc3cc2c1	inactive
Nc1ccn([C@@H]2O[C@H](CO)[C@@H](O)[C@@H]2O)c(=O)n1	inactive
CCCC(CCC)C(=O)O	inactive
O=C(O)c1ccc2c(c1)nc(C(=O)NC1CCN(C3CC3)CC1)n2Cc1cc(-c2ccc(Cl)s2)on1	inactive
O=C1CN(N=Cc2ccc([N+](=O)[O-])o2)C(=O)N1	inactive

QUERY: Name the outcome recorded for `CNC(C)=O` in the assay.
RESULT: inactive

QUERY: Name the outcome recorded for `CCCCCCCCCCCCCCO` in the assay.
RESULT: inactive

QUERY: Name the outcome recorded for `COc1cc2c(c(OC)c1OC)-c1ccc(OC)c(=O)cc1[C@@H](NC(C)=O)CC2` in the assay.
RESULT: active

* * *

- Read-out: Interleukin-8 (IL8), CXCL8 (gene 3576)
- Protocol Notes: BSK_IMphg_IL8: BioMAP Diversity Plus: IMphg Assay for Interleukin-8 (IL8) Biomarker Activity (AID 2284277)
- Condition Set: primary human endothelial cells with macrophages
Activity calls are given as the source filed them. The calls were made as follows: active = hit-call score of the fitted dose curve at least 0.9, where 1 is the maximum; inactive = score below 0.9.

Compound	outcome
FC(F)(F)C(F)(F)C(F)(F)C(F)(F)C(F)(F)C(F)(F)I	inactive
O=S(=O)(O)CCC(F)(F)C(F)(F)C(F)(F)C(F)(F)C(F)(F)C(F)(F)F	inactive
O=C(Cl)C(F)(F)C(F)(F)C(F)(F)C(=O)Cl	inactive
FC(F)C(F)(F)COCC1CO1 (centres undefined)	inactive
